Value source: paper PMC5033713

# Tgt: GluA2F623A (Rattus norvegicus, UniProt P19491, F644A)
# Assay info: Whole-cell patch-clamp, current inhibition of alanine mutant GluA2F623A
Observable: IC50 (µM)

In [3]: df
Out[3]:
                                   compound  quantity_unit  value_reported
0  CNC(=O)N1N=C(c2ccc(N)cc2)c2cc3c(cc2CC1C)OCO3 (stereo not shown)             µM             153

* * *

# Tgt: GluA2D519A (Rattus norvegicus, UniProt P19491, D540A)
# Sequence (P19491 22-883 D540A): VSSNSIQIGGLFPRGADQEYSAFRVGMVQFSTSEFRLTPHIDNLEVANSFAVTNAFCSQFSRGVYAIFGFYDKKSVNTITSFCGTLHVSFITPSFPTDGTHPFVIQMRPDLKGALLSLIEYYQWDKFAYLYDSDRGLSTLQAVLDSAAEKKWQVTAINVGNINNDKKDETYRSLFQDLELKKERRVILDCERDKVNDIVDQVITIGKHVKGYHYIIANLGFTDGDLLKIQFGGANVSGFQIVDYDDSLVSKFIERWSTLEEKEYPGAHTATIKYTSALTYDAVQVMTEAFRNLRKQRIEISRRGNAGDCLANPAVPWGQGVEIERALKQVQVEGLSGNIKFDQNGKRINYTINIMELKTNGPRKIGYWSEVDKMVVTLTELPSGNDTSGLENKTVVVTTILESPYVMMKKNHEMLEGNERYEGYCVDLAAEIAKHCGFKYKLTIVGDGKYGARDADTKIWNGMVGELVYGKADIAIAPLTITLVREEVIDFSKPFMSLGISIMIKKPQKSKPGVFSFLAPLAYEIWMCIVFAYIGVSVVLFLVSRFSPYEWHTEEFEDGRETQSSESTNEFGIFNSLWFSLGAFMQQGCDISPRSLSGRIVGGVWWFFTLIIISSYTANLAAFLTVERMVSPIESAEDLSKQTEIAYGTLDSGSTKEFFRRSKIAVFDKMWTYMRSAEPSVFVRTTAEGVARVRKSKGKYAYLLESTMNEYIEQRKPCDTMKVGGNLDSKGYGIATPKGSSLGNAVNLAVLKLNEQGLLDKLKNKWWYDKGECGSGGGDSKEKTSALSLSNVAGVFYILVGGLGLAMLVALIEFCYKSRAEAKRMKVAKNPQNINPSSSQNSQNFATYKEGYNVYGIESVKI
# Assay info: Whole-cell patch-clamp, current inhibition of alanine mutant GluA2D519A
Observable: IC50 (µM)

>>> print(df.to_string())
                                   compound                                       tgt  observable  value_reported
0  CNC(=O)N1N=C(c2ccc(N)cc2)c2cc3c(cc2CC1C)OCO3 (stereo not shown) [GYKI, GYKI 53655]  GluA2D519A (Rattus norvegicus, UniProt P19491, D540A)        IC50             3.8
